# credit: patent US20190119282A1

Target: PAR2 (HT-29 cells, SLIGKV activation) (Homo sapiens)
Construct: host or cells: HT-29 cells
Sequence (P55085 26-397): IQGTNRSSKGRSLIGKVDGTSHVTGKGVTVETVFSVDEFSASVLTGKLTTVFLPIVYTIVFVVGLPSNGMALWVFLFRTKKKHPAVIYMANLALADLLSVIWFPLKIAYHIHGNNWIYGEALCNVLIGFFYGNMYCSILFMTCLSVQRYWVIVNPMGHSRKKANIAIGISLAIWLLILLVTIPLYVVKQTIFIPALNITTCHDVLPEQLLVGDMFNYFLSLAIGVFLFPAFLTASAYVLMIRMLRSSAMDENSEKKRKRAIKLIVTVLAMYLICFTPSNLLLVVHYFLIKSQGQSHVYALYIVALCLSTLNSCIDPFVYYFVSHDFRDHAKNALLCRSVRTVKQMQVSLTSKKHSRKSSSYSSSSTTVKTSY
Assay: Ca FLIPR TETRA assay, ANTAGONIST mode, stimulation with 8 μM SLIGKV
Type: cell-based
Conditions: HT-29 cells, antagonist mode, stimulation with 8 μM SLIGKV
Protocol: Example 60: Protocol for Testing PAR2 Compounds in ANTAGONIST Mode Using the Ca FLIPR^TETRA Assay (384 Well) […] A first read was performed to determine whether the test compounds on their own can activate Ca2+ responses. The cells were incubated with the compounds for 30 min at r. t. and then read in ANTAGONIST mode in the same plate by stimulating with 6.2 uL of a fixed concentration of the activator: final concentrations: 8 μM SLIGKV, 1 U/mL Thrombin, 3.1 U/mL trypsin, or 0.6 μM UTP.
recordedEndpoint: pIC50
Friendly reminder that pIC50 comes from taking -log10 of the concentration in mol/L.

CC(C)(C)c1cc(-c2ccc(Cl)c(F)c2)nn2cc(C(=O)N3CCN(C(=O)c4ccccn4)CC3(C)C)nc12 [Compound I-455] = 9.22
C[C@H]1CN(C(=O)c2cn3nc(-c4ccc(F)cc4)cc(C(C)(C)C)c3n2)C(C)(C)C(=O)N1 [Compound I-226] = 6.28
CC(C)(C)c1cc(-c2ccc(C(F)(F)F)cc2)nn2cc(C(=O)N3CCN(C(=O)c4ccccn4)CC3(C)C)nc12 [Compound I-398] = 8.51
Cc1nnc(C(=O)N2CCN(C(=O)c3cn4nc(C5CCC(F)(F)CC5)cc(C(C)(C)C)c4n3)C(C)(C)C2)o1 [Compound I-461] = 7.83
Cc1cc(C(=O)N2CCN(C(=O)c3cn4nc(-c5ccc(F)cc5)cc(C(C)(F)F)c4n3)C(C)(C)C2)[nH]n1 [Compound I-355] = 8.02

get_value(item= CC(C)(C)c1cc(-c2ccc(F)cc2)nn2cc(C(=O)N3CCN(C(=O)c4ccno4)CC3(C)C)nc12 [Compound I-202] , readout=pIC50) returns 9.22

Record Cc1ncc(C(=O)N2CCN(C(=O)c3cn4nc(-c5ccc(F)c(Cl)c5)cc(C(C)(C)C)c4n3)C(C)(C)C2)[nH]1 [Compound I-467] . Reported pIC50: 9.05

* * *

Measured IC50 of individual entries
target: PAR2 (HT-29 cells, SLIGKV activation) (Homo sapiens); construct: host or cells: HT-29 cells; experiment: Ca FLIPR TETRA assay, ANTAGONIST mode, stimulation with 8 μM SLIGKV; type: cell-based; conditions: HT-29 cells, antagonist mode, stimulation with 8 μM SLIGKV
The response must be a number in nM with no trailing unit.

Example results:
CC(C)(C)c1cc(-c2ccc(Cl)c(F)c2)nn2cc(C(=O)N3CCN(C(=O)c4ccn[nH]4)CC3(C)C)nc12 [Compound I-454] = 0.4
Cc1cc(C(=O)N2CCN(C(=O)c3cn4nc(-c5ccc(F)cc5)cc(C(C)(C)C)c4n3)C(C)(C)C2)[nH]n1 [Compound I-291] = 0.2
CC(C)(C)c1cc(-c2ccc(F)cc2)nn2cc(C(=O)N3CCN(C(=O)C(C)(O)C(F)(F)F)CC3(C)C)nc12 (centres unmarked) [Compound I-317] = 3.4
CC(C)(C)c1cc(-c2ccc(F)cc2)nn2cc(C(=O)N3CCN(C4COC4)C(=O)C3(C)C)nc12 [Compound I-210] = 4

response.value for CC(C)(C)c1cc(-c2ccc(F)cc2)nn2cc(C(=O)N3CCN(C(=O)C4CCCO4)CC3(C)C)nc12 (centres unmarked) [Compound I-200] (field: IC50) = 2.4

Notebook: Cc1ccc(-c2cc(C(C)(C)C)c3nc(C(=O)N4CCN(C(=O)c5ccn[nH]5)CC4(C)C)cn3n2)cc1F [Compound I-424] , IC50 read as 0.9

Sample CN(C)C(=O)CN1CCN(C(=O)c2cn3nc(-c4ccc(F)cc4)cc(C(C)(C)C)c3n2)C(C)(C)C1=O [Compound I-194] ; IC50 observed: 41.3

// IC50 value for Cc1nc(C(=O)N2CCN(C(=O)c3cn4nc(-c5ccc(C(F)(F)F)cc5)cc(C(C)C)c4n3)C(C)(C)C2)n[nH]1 [Compound I-413] : 3.4

Record summary for CC(C)c1cc(-c2ccc(F)cc2)nn2cc(C(=O)N3CCOC(=O)C3(C)C)nc12 [Compound I-511] : reported IC50 = 23

The recorded IC50 for Cc1cccc(-c2cc(C(C)(C)C)c3nc(C(=O)N4CCN(C(=O)c5ncccn5)CC4(C)C)cn3n2)c1 [Compound I-412] is 6.4

Form field IC50, entry CC(C)(C)c1cc(-c2ccc(F)cc2)nn2cc(C(=O)N3CCN(C(=O)c4cncnc4)CC3(C)C)nc12 [Compound I-230] : 2.4

Value of IC50 reported for the molecule CC(C)(C)c1cc(-c2ccc(F)cc2)nn2cc(C(=O)N3CCN(C(=O)C(C)(N)C(F)(F)F)CC3(C)C)nc12 (centres unmarked) [Compound I-318] is 1.7

Reported IC50 ( Cc1cc(-c2cc(C(C)(C)C)c3nc(C(=O)N4CCN(C(=O)c5ncccn5)CC4(C)C)cn3n2)ccc1F [Compound I-387] ) = 1.4

Consider CC(C)(C)c1cc(-c2ccc(Cl)cc2)nn2cc(C(=O)N3CCN(C(=O)[C@H]4C[C@@](C)(O)C4)CC3(C)C)nc12 [Compound I-421] . Its measured IC50 is 0.3
